This collection of values is drawn from the supplement of paper PMC13380429.

tested on: Vero E6 infected with SARS-CoV-2; assay: inhibition of SARS-CoV-2 cytopathic effect; higher = more antiviral protection, active = above 15; conditions: 833.33 nM; 48 h
recorded endpoint: inhibition of SARS-CoV-2 cytopathic effect (%)
Answers are plain numbers, in %.

molecule	measurement units	measurement
NCCCC[C@@H]1NC(=O)[C@@H](Cc2c[nH]c3ccccc23)NC(=O)[C@H](c2ccccc2)NC(=O)[C@@H]2C[C@@H](OC(=O)NCCN)CN2C(=O)[C@H](Cc2ccccc2)NC(=O)[C@H](Cc2ccc(OCc3ccccc3)cc2)NC1=O [pasireotide]	%	-4.91

Next, consider the following molecule.
For this molecule ( `Cc1cc(-c2ccc(/N=N/c3ccc4c(S(=O)(=O)O)cc(S(=O)(=O)O)c(N)c4c3O)c(C)c2)ccc1/N=N/c1ccc2c(S(=O)(=O)O)cc(S(=O)(=O)O)c(N)c2c1O` ), measured inhibition of SARS-CoV-2 cytopathic effect is -0.35

###

I'd be grateful if you could share measured inhibition of SARS-CoV-2 cytopathic effect for these entries.
test system: Vero E6 infected with SARS-CoV-2; test: inhibition of SARS-CoV-2 cytopathic effect; higher = more antiviral protection, active = above 15; conditions: 8.33 nM; 48 h
Answers are plain numbers, in %.

molecule	measurement
N#C/C(=C\c1ccc(O)c(O)c1)C(=O)NCCCCc1ccccc1	1.37
O=C(Nc1ccccc1)OCC(CN1CCCCC1)OC(=O)Nc1ccccc1 (stereo not drawn) [diperodon]	-0.37
CN(C)c1ccc2c(c1)Sc1cc(N(C)C)ccc1N2 [leucomethylene-blue]	0.11

For every item below, please supply its inhibition of SARS-CoV-2 cytopathic effect.
1. CCCC(C)C1(CC)C(=O)NC(=O)NC1=O (stereo not drawn) [pentobarbital]
2. COc1cccc(-c2cc(=O)c3ccccc3o2)c1N
3. OC[C@H]1O[C@H](O[C@H]2[C@H](O)[C@@H](O)[C@H](O)O[C@@H]2CO)[C@H](O)[C@@H](O)[C@@H]1O [D-(+)-maltose]

result:
[2, -3.81, -1.49]

###

tested on: Vero E6 infected with SARS-CoV-2; assay: inhibition of SARS-CoV-2 cytopathic effect; higher = more antiviral protection, active = above 15; conditions: 1 nM; 48 h
I'd be grateful if you could share measured inhibition of SARS-CoV-2 cytopathic effect for these entries.
One number for each entry, in %.

Reference set (7 entries):
smiles data	subject of test	measurement
CCc1c(O)cc(O)c(C(=O)c2ccc(OCCN3CCOCC3)c(OC)c2)c1CC(=O)N(CCOC)CCOC	Vero E6 infected with SARS-CoV-2	-1.17
CCOc1cc2ncc(C#N)c(Nc3ccc(OCc4ccccn4)c(Cl)c3)c2cc1NC(=O)/C=C/CN(C)C	Vero E6 infected with SARS-CoV-2	0.12
Cc1cc(-c2nc3cc(F)ccc3s2)ccc1NC(=O)[C@@H](N)CCCCN	Vero E6 infected with SARS-CoV-2	-1.03
C#Cc1cccc(Nc2ncnc3cc(OCCOC)c(OCCO)cc23)c1	Vero E6 infected with SARS-CoV-2	2.26
OC[C@H]1O[C@@H](n2cnc3c(NC4CCCC4)ncnc32)[C@H](O)[C@@H]1O	Vero E6 infected with SARS-CoV-2	0.37
CC(=O)[C@@]1(O)CC[C@H]2[C@@H]3C[C@H](C)C4=CC(=O)C=C[C@]4(C)[C@@]3(F)[C@@H](O)C[C@@]21C	Vero E6 infected with SARS-CoV-2	0.01
CCCn1cnc2c1c(=O)n(CCCCC(C)=O)c(=O)n2C	Vero E6 infected with SARS-CoV-2	0.84

For this molecule ( `CCCCCCCCCCCCCCCC[N+](C)(C)C` ), measured inhibition of SARS-CoV-2 cytopathic effect is 1.02
